B1: Ribonuclease, P00648 (parent)
chain: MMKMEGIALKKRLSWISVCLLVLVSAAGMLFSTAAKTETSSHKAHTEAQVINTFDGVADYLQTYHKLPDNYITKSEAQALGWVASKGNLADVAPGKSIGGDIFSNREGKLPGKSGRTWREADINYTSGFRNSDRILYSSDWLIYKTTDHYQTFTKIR

- Variants of: B1
- CONDITION: Bacillus amyloliquefaciens; pH 6.3; 25 °C; Urea; Fluorescence; MES 1.00 M; NaCl 613 mM; reversible: yes; structure 1BNI; whole UniProt chain shown
Below, each entry is listed alongside its reported ddG of mutation (higher = less stable).
The figure you give is taken to be in kcal/mol; do not add the unit.

Known results for variants:
[
  {
    "MUTATION_ANNOTATION": "D55A R157A",
    "RESULT_UNIT": "kcal/mol",
    "ddG of mutation (higher = less stable)": 0.47
  },
  {
    "MUTATION_ANNOTATION": "D55A D59A R157A",
    "RESULT_UNIT": "kcal/mol",
    "ddG of mutation (higher = less stable)": -0.11
  },
  {
    "MUTATION_ANNOTATION": "D59A",
    "RESULT_UNIT": "kcal/mol",
    "ddG of mutation (higher = less stable)": 0.34
  },
  {
    "MUTATION_ANNOTATION": "R157A",
    "RESULT_UNIT": "kcal/mol",
    "ddG of mutation (higher = less stable)": 0.46
  },
  {
    "MUTATION_ANNOTATION": "D55A",
    "RESULT_UNIT": "kcal/mol",
    "ddG of mutation (higher = less stable)": 0.99
  }
]

// returns reported ddG of mutation (higher = less stable) for input D55A D59A
0.89
